- System Under Test: Tb-chelate labeled anti-pSer133 antibody
- Test Protocol: TR-RET titration of the tracer against the Tb-labeled antibody
Square brackets hold non-standard residues; d marks the D form. Ends that are not written are not given here. pS = N[C@@H](COP(=O)(O)O)C(=O)O
Quantity Measured: Kd

# query: Kd of entry LRREILSRRP[pS]YRK-Fluorescein [Tracer 4: …(pS)YRK-Fluorescein]
< 1 nM
